biological target: DNA topoisomerase II (Homo sapiens) (UniProt P11388+Q02880); experiment: Compound was tested for inhibition against human DNA topoisomerase II; assay type: protein assay; design: concentration or dose not given beside the values; settings: concentration not given here
measurement.name: inhibition (%)
State just the number; it will be interpreted in %.

Below: 10 compounds and their reported inhibition.
{"compound": "COc1cc([C@@H]2c3cc4c(c(OC)c3C[C@H]3COC(=O)[C@@H]32)OCO4)cc(OC)c1O", "inhibition / %": 25}
{"compound": "COc1cc([C@@H]2c3cc4c(cc3[C@@H](O)[C@H]3COC(=O)[C@H]23)OCO4)cc(OC)c1O [4'-DEMETHYLEPIPODOPHYLLOTOXIN]", "inhibition / %": 50}
{"compound": "COc1cc([C@@H]2c3cc4c(cc3[C@@H](OC(C)=O)[C@H]3COC(=O)[C@H]23)OCO4)cc(OC)c1O", "inhibition / %": 25}
{"compound": "CCO[C@@H]1c2cc3c(cc2[C@@H](c2cc(OC)c(O)c(OC)c2)[C@H]2C(=O)OC[C@@H]21)OCO3", "inhibition / %": 25}
{"compound": "COc1cc([C@@H]2c3cc4c(c(OC(=O)OCc5ccccc5)c3C[C@H]3COC(=O)[C@@H]32)OCO4)cc(OC)c1O", "inhibition / %": 25}
{"compound": "CCCC(=O)Oc1c2c(cc3c1OCO3)[C@@H](c1cc(OC)c(O)c(OC)c1)[C@H]1C(=O)OC[C@@H]1C2", "inhibition / %": 25}
{"compound": "COc1cc([C@@H]2c3cc4c(c(OC(C)=O)c3C[C@H]3COC(=O)[C@@H]32)OCO4)cc(OC)c1O", "inhibition / %": 0}
{"compound": "COc1cc([C@@H]2c3cc4c(cc3[C@@H](OC(=O)CCC(=O)O)[C@H]3COC(=O)[C@H]23)OCO4)cc(OC)c1O", "inhibition / %": 0}
{"compound": "COc1cc([C@@H]2c3cc4c(c(OC(=O)CCC(=O)O)c3C[C@H]3COC(=O)[C@@H]32)OCO4)cc(OC)c1O", "inhibition / %": 0}
{"compound": "COc1cc([C@@H]2c3cc4c(c(O[C@@H]5O[C@H]6CO[C@@H](c7cccs7)O[C@H]6[C@H](O)[C@@H]5O)c3C[C@H]3COC(=O)[C@@H]32)OCO4)cc(OC)c1O", "inhibition / %": 25}

[in] Please look up its inhibition: CCC(=O)Oc1c2c(cc3c1OCO3)[C@@H](c1cc(OC)c(O)c(OC)c1)[C@H]1C(=O)OC[C@@H]1C2
[out] 25

[in] What would you report for COc1cc([C@@H]2c3cc4c(c(O[C@@H]5O[C@@H](CO)[C@@H](O)[C@H](O)[C@@H]5O)c3C[C@H]3COC(=O)[C@@H]32)OCO4)cc(OC)c1O ?
[out] 25

[in] Also CCS[C@@H]1c2cc3c(cc2[C@@H](c2cc(OC)c(O)c(OC)c2)[C@H]2C(=O)OC[C@@H]21)OCO3 ?
[out] 25

[in] Please answer likewise for CCC(=O)O[C@@H]1c2cc3c(cc2[C@@H](c2cc(OC)c(O)c(OC)c2)[C@H]2C(=O)OC[C@@H]21)OCO3
[out] 0

====

biological target: DNA topoisomerase II (Homo sapiens) (UniProt P11388+Q02880); assay: Compound was tested for inhibition against human DNA topoisomerase II; format: protein assay; parameters: concentration or dose not given beside the values; settings: concentration not given here
measurement.name: inhibition

Some compounds with recorded inhibition:
{"compound": "COc1cc([C@@H]2c3cc4c(cc3[C@@H](O[C@@H]3O[C@@H]5CO[C@@H](C)O[C@H]5[C@H](O)[C@H]3O)[C@H]3COC(=O)[C@H]23)OCO4)cc(OC)c1O [ETOPOSIDE]", "inhibition": "> 88%"}
{"compound": "COc1cc([C@@H]2c3cc4c(cc3[C@@H](OC)[C@H]3COC(=O)[C@H]23)OCO4)cc(OC)c1O", "inhibition": "25%"}

[in] Item COc1cc([C@@H]2c3cc4c(c(O)c3C[C@H]3COC(=O)[C@@H]32)OCO4)cc(OC)c1O has what recorded inhibition?
[out] 0%
